TARGET_OR_SYSTEM: UniProt:Q9H0K1
Sequence (Q9H0K1 whole entry, looked up): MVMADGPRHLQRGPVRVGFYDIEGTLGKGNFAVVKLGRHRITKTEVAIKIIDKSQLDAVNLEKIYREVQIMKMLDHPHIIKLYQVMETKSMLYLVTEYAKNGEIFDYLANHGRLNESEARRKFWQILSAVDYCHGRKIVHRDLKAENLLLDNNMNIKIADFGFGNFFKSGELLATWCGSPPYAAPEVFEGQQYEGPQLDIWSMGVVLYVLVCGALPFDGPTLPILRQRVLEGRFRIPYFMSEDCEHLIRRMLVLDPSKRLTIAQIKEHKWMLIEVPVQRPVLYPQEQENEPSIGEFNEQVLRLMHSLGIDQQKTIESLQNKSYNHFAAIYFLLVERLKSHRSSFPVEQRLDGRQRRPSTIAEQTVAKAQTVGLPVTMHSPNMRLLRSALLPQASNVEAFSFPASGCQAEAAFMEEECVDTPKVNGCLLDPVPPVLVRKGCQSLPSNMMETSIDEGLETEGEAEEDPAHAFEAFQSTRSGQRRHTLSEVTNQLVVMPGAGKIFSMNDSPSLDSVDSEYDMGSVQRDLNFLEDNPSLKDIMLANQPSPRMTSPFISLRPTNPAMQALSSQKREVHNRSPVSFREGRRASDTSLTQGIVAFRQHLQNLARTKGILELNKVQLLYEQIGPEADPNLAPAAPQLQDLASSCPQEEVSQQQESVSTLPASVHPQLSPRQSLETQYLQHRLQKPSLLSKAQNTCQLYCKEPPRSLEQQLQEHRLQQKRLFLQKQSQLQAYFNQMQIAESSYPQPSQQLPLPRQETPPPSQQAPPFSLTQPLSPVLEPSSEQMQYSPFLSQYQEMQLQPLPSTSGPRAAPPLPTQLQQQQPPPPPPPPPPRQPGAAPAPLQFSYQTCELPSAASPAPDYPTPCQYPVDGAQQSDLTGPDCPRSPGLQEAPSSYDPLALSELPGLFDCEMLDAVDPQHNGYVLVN
METHOD_NOTES: radiometric filter-binding kinase assay
CONDITIONS_USED: compound 1.0 µM
READOUT_TYPE: residual activity (%)

COMPOUND: CNc1nc(-c2ccc3c(N)n[nH]c3c2)cc(N2C[C@@H](C(=O)NC3CCCCC3)CC[C@H]2C)n1
TARGET_OR_SYSTEM: UniProt:Q9H0K1
QUANTITY_UNIT: %
residual activity: 106

COMPOUND: CC1=C(CO)C(=O)O[C@@H]([C@@H](C)[C@H]2CC[C@H]3[C@@H]4C[C@H]5O[C@]56[C@@H](O)C=CC(=O)[C@]6(C)C4CC[C@]23C)C1 (some centres undefined)
TARGET_OR_SYSTEM: UniProt:Q9H0K1
QUANTITY_UNIT: %
residual activity: 78

COMPOUND: C=C1C(=O)OC2C1CC/C(C)=C/CCC1(C)OC21 (centres undefined)
TARGET_OR_SYSTEM: UniProt:Q9H0K1
QUANTITY_UNIT: %
residual activity: 108

(A) Cc1cc(NC(=O)c2cccc(NC(=O)/C=C/CN(C)C)c2)ccc1Nc1nccc(-c2cccnc2)n1
(B) CN(C)C/C=C/C(=O)Nc1cccc(C(=O)Nc2ccc(Nc3nccc(-c4cccnc4)n3)cc2)c1
When their residual activity values are compared, which is larger, A or B ? Refer to your chosen entry by its label in the reply.
A
(A: 105%, B: 67%)
